- procedure.text: inhibitors of triacylglycerol accumulation, primary screen, cell-based, uHTS, fluorescence, H9c2 (AID 651582);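 note: 0% = DMSO wells and 100% = triacsin C control wells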
- experimental.setup: H9c2 cells, Nile Red lipid (TAG) fluorescence, at 12.5 µM, cells loaded with 200 µM oleic acid
In all, about 230,000 compounds went through this assay and about 1,500 (0.65%) were called active.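 Rule for the calls: active = pattern-corrected inhibition of lipid staining of at least 50% with the nuclear-stain viability signal not falling by more than 50%; inactive = the rest, inconclusive results apart.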 Only a selection was taken, and actives are over-represented in it overall.
Valid outcomes are listed here; reply with one: 1 for active, 0 for inactive

compound: O=C(CCl)NNc1nc(-c2ccccc2)c2cc(Cl)ccc2n1
category.label: 0

compound: COc1ccccc1-c1nn(Cc2ccccc2)cc1C(=O)N1CCN(c2ncccn2)CC1
category.label: 0

compound: COc1ccc(S(=O)(=O)N(C)C)cc1NC(=O)COC(=O)c1n[nH]c2ccccc12
category.label: 0

Prompt: Call for entry COc1ccc2nc(SCC(=O)Nc3c(C)cc(C)cc3C)[nH]c2c1 :
Response: 0

Prompt: // repeat for NC(=O)c1ncn([C@@H]2O[C@H](CNCc3cnc(N4CCOCC4)s3)[C@@H](O)[C@H]2O)n1 and report
Response: 0

Prompt: // repeat for CCCn1c(N)c(C(=O)CSc2nnc(Cc3cccs3)n2C2CC2)c(=O)[nH]c1=O and report
Response: 0

Prompt: // repeat for COc1ccc(OC)c(/C=C/C(=O)c2ccc3c(c2)OCO3)c1 and report
Response: 0

Prompt: // repeat for COc1ccc(-c2sc3ccc(OC)cc3c2C#Cc2ccccn2)cc1 and report
Response: 0

Prompt: // repeat for COc1ccc(Cl)cc1NC(=O)CN(C)C(=O)c1cc(-c2cccs2)nn1-c1ccccc1 and report
Response: 0

Prompt: // repeat for Cc1cc(NC(=O)CSc2nc3c(cc2C#N)CCCCC3)no1 and report
Response: 0

Prompt: // repeat for O=S(=O)(Cc1cc(Sc2ccccc2)nc(-c2ccccc2)n1)c1ccccc1 and report
Response: 0

Prompt: // repeat for COc1ccccc1NC1=NC(c2ccc(Cl)cc2)N=C(N)N1 (stereo unspecified) and report
Response: 1

Prompt: // repeat for Cc1ccccc1-c1cc(C(=O)NCc2cccs2)n(CC2CC(c3cccnc3)=NO2)n1 (stereo unspecified) and report
Response: 0

Prompt: // repeat for CC(C)CCOc1ccc(C(=O)Nc2cc(S(=O)(=O)N3CCOCC3)ccc2N2CCOCC2)cc1 and report
Response: 0

Prompt: // repeat for O=C(Cn1cnc2c(OCc3ccccc3)ncnc21)NCCCn1ccnc1 and report
Response: 0

Prompt: // repeat for Cc1cc(NC(=O)CSc2ncc(C(F)(F)F)cc2Cl)no1 and report
Response: 0

Prompt: // repeat for COc1ccc(S(=O)(=O)N2CCCCC2c2cc(C(=O)NCc3ccc(F)cc3)no2)cc1 (stereo unspecified) and report
Response: 0

Prompt: // repeat for COc1ccc(C(=O)NCc2ccccc2C)cc1S(=O)(=O)NC1CCCC1 and report
Response: 0
